Data origin, for the record: patent US20140271653A1

I'd appreciate it if you could supply IC50 [pM] for RSV A2 Neutralization, Trial 1 values for the items below.
# target_under_test: RSV-F of RSV subtype A strain A2 (1540) (respiratory syncytial virus subtype A, …, UniProt P03420 26-574)
# protocol_description: cell-based or functional assay

*Q* What value of IC50 [pM] for RSV A2 Neutralization, Trial 1 has been reported for the following binder? H1H3607P (antibody, V domains shown) VH: QVQLVESGGGLVKPGGSLRLSCAASGFTFSDYYMTWIRQVPGKGLEWVSYISSTGNNRYYGDSVKGRFAISRDNAKNLLFLQMNSLKAEDTAVYYCARENNWNPYFFYYGMDVWGQGTTVTVSS VL: DIQMTQSPSSVSASVGDRVTITCRASQGISIWLAWYQQKPGKAPKLLISAASTLQSGVPSRFSGSGSGTDFTLTISSLQPEDFATYYCQQANSFPLTFGQGTKVEIK
*A* > 10000 pM

*Q* What value of IC50 [pM] for RSV A2 Neutralization, Trial 1 has been reported for the following binder? H1M3621N (antibody, V domains shown) VH: QVQLEQSGAEVKKPGASVRISCKASGDTFTGYYINWVRQAPGQGLEWMGWINTNSGGTYFSQKFQVRVILTRDTSINTAYMELSRLRSDDTAVYYCARMFYDILTNSDIFDIWGQGTMVTVSS VL: DIQMTQSPSSLSASVGDRVTITCRASQDIRNDLGWYQQKPGKAPKCLIYGASSLQSGVPSRFSGSGSGTEFTLTISSLQPEDFATYYCLQHKNYMYTFGQGTKLEIK
*A* 582 pM

*Q* What value of IC50 [pM] for RSV A2 Neutralization, Trial 1 has been reported for the following binder? H1M3627N (antibody, V domains shown) VH: EVQLVESGGGLVQPGGSLRLSCAASGFTISNYEMNWVRQAPGKGLEWVSYISTSGITIYYADSVQGRFTISRDNAKNSLYLQLNSLRAEDTAVYYCARGYCTNGVCYPHYYYSDMDVWGQGTTVTVSS VL: DIQMTQSPSSLSASVGDRLTITCRASQTISTYLNWFQQKVGNAPKLLIYSTSSLQSGVPARFSGSGSGTDFTLTISSLQPEDFATYYCQQSYSSPPTFGQGTKVEIK
*A* 4 pM

*Q* What value of IC50 [pM] for RSV A2 Neutralization, Trial 1 has been reported for the following binder? H1H3605P (antibody, V domains shown) VH: QVQLQESGPGLVKPSETLSLTCTVSGGFISNYYWSWIRQPPGKGLEWIGYIYYSGSTKYNPSLKSRVTISVDTSKNQFSLKLSSVSAADTAVYYCARDGVVAAAGPPYHYHYGLDVWGQGTTVTVSS VL: DIVMTQSPDSLAVSLGERATINCKSSQNLLYTSSNKNSLAWYQQKPGQPPELLIYWASTRESGVPDRFSGSGSGTDFILTISSLQAEDVAVYYCQQYYSSPWTFGQGTKVEIK
*A* > 10000 pM

*Q* What value of IC50 [pM] for RSV A2 Neutralization, Trial 1 has been reported for the following binder? Control I (palivizumab sequence) (antibody, V domains shown, also called Control 1; SYNAGIS) VH: QVTLRESGPALVKPTQTLTLTCTFSGFSLSTSGMSVGWIRQPPGKALEWLADIWWDDKKDYNPSLKSRLTISKDTSKNQVVLKVTNMDPADTATYYCARSMITNWYFDVWGAGTTVTVSS VL: DIQMTQSPSTLSASVGDRVTITCKCQLSVGYMHWYQQKPGKAPKLLIYDTSKLASGVPSRFSGSGSGTEFTLTISSLQPDDFATYYCFQGSGYPFTFGGGTKLEIKR
*A* 1820 pM
